Data origin: paper PMC8809517

- TARGET DESC: T1, 9S-S2 PPR (synthetic construct)
- T1 chain: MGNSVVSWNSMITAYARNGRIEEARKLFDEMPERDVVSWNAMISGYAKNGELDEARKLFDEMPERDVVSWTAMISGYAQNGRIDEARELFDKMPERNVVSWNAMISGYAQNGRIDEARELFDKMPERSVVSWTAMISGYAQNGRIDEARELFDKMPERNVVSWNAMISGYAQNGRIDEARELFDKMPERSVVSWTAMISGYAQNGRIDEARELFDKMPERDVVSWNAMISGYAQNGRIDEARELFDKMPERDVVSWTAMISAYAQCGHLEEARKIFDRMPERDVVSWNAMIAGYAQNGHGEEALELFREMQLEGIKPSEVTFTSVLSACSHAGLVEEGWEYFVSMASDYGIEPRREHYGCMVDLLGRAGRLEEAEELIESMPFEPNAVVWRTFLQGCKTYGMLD
- EXPERIMENTAL DETAILS: high-throughput RNA pulldown on Ni-NTA beads; HRP: 50 mM Tris pH 8, 150 mM NaCl, 1 mM beta-mercaptoethanol, 50 ug/ml BSA, 3 ug/ml yeast RNA, 0.5% heparin; ITC and FP: Tris pH 8, 200 mM KCl, 5% glycerol; MST: 50 mM Tris pH 8, 200 mM NaCl, 1 mM DTT, BSA, heparin, 0.05% Tween 20
- TEST SETTINGS: protein: recombinant; tags: N-terminal TRX-His; label: 5' Cy5
pKd: −log10 of the molar value.

| BINDER | pKd |
| --- | --- |
| AUUACACGUGA (ssRNA) [Cy5-rpoA] | 8.19 |
